Catalogue of Ctrl-TiO2 readings, one per entry.
test: Franz skin diffusion cell permeation (percutaneous absorption) under ambient, natural or pulsed incoherent LED light; settings: Table 8 (405 nm series); ambient light, 2% TiO2
API note: the answer field is a bare number with no unit suffix.

[Q] Entry O=C1O[C@H]([C@@H](O)CO)C(O)=C1O [Compound 3, Ascorbic Acid] has what Ctrl-TiO2?
[A] 127.25

Next:
[Q] Entry Cc1ncc(CO)c(CO)c1O [Compound 5, Pyridoxine] has what Ctrl-TiO2?
[A] 806.25

[Q] Entry O=C(O)c1cccnc1 [Compound 6, Nicotinic acid] has what Ctrl-TiO2?
[A] 1371.00

[Q] Entry NC(=O)c1cccnc1 [Compound 10, Nicotinamide] has what Ctrl-TiO2?
[A] 851.83
